Biological target: Ubiquitin carboxyl-terminal hydrolase 7 (Homo sapiens) (UniProt Q93009)
Sequence (Q93009 whole entry, looked up): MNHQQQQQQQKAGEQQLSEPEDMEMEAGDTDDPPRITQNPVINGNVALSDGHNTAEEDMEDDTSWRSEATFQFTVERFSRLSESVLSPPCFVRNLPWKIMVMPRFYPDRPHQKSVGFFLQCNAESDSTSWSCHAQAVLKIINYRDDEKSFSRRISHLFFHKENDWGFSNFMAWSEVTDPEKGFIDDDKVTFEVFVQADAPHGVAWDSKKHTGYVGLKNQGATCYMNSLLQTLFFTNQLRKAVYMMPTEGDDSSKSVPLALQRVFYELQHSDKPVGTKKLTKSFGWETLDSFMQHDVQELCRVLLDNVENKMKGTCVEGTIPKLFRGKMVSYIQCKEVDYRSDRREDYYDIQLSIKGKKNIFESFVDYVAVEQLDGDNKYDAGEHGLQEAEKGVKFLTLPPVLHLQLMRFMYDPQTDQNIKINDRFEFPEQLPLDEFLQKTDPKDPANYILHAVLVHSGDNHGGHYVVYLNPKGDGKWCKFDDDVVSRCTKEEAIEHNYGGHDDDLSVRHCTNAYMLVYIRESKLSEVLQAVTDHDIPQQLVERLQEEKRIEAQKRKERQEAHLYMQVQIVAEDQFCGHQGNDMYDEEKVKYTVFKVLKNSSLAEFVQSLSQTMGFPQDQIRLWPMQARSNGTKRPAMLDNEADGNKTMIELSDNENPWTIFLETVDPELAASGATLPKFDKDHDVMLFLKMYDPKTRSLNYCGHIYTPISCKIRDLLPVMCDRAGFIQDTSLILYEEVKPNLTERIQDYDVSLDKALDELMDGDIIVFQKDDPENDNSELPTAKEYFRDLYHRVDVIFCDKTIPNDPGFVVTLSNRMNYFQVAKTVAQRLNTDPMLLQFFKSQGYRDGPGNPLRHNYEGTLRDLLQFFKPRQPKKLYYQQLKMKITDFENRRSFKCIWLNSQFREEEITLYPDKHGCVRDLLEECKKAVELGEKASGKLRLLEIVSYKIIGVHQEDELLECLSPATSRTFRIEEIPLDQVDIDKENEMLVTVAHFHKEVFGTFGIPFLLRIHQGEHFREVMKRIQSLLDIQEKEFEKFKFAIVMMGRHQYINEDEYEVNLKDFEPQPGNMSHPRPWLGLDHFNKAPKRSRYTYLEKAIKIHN
Assay: Ubiquitin-specific protease 7 DUB inhibitors, concentration-effect, biochemical, validation of primary hits (AID 1645861)
Settings: purified USP7, Ub-rhodamine cleavage fluorescence, 60 min
Active and inactive are the calls of the source.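 How the source made its calls: active means compounds whose peak USP7 inhibition across the dose series reached 30% or more; inactive means the rest.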
Respond using exactly one of the listed classes: active, inactive

query: I'd appreciate the recorded outcome for CCC(=O)N1c2ccccc2NC2=C(C(=O)CC(c3ccccc3OCc3ccccc3)C2)C1c1ccccc1 (centres undefined) from this test.
result: inactive

query: Which result was noted for this compound in the test: COc1cc2c(=O)n(Cc3ccccc3)c(=O)n(CC(=O)N3CCCc4ccccc43)c2cc1OC
result: inactive

query: Which outcome did this test record for the compound Cc1cccc(-n2ccnc(SCC(=O)Nc3ccc(Cl)cc3F)c2=O)c1 ?
result: inactive

query: I would be grateful if you could indicate the recorded call for O=C(O)c1cccc(NC(=O)C(Sc2cccc(NC(=O)c3cccc(Cl)c3)c2)c2ccccc2)c1 (centres undefined) .
result: active

query: Which outcome was entered for the compound O=C(Cn1c(=O)n(CC2CCC(C(=O)NCCc3ccccc3)CC2)c(=O)c2ccccc21)NCc1ccco1 (centres undefined) in this test?
result: inactive

query: Answer briefly: the call reported for Cc1ccc(Cn2cc(C(=O)Nc3ccccc3C(N)=O)ccc2=O)cc1 in this assay.
result: inactive

query: // param item: O=C(NCC1(c2ccccc2)CCC1)c1nc2n(n1)-c1ccccc1S(=O)(=O)N2 ; yields the recorded call
result: inactive

query: What was the test verdict on Cc1ccc2[nH]c(=O)c(-c3nc4ccc(C)cn4c3NCc3ccc(F)cc3)cc2c1 ?
result: active

query: Which outcome was entered for the compound O=C1c2c(O)c(Cl)cc3c2[C@@]2(Oc4ccc(O)c5c4[C@]3(O2)[C@@H]2O[C@@H]2C5=O)[C@@H]2O[C@H]12 in this test?
result: active
